Consider the following molecules and their measured MIC SA readings.
# Tested on: S. aureus (ATCC 29213)
# assay-text: MIC determination, broth microdilution
# Assay type: cell-based, Staphylococcus aureus
# experimental-setup: S. aureus ATCC 29213; MHB-II, inoculum 5 × 10^5 CFU/mL, 37 °C, 18–24 h, triplicate
Non-standard residues stand in square brackets, D forms with d. Residues, ends and D or L forms follow the SMILES beside them. *: point of attachment. Butyryl = CCCC(=O)*
parameter-measured: MIC SA

{"molecule": "CCCCCCCCCCCC(=O)N[C@H](CCCCN)C(=O)N[C@H](CCCCN)C(=O)N[C@H](CC(C)C)C(=O)N[C@H](Cc1ccccc1)C(=O)N[C@H](CCCCN)C(=O)N[C@H](CCCCN)C(=O)N[C@@H](C(=O)N1CCCC[C@H](C(N)=O)NC(=O)[C@@H](Cc2ccc(O)cc2)NC(=O)[C@@H](CCCNC(=N)N)NC(=O)[C@@H](CC(C)C)NC(=O)C1)[C@H](C)CC", "val": "4 µg/mL"}
{"molecule": "CCCC(=O)N[C@H](CCCCN)C(=O)N[C@H](CCCCN)C(=O)N[C@H](CC(C)C)C(=O)N[C@H](Cc1ccccc1)C(=O)N[C@H](CCCCN)C(=O)N[C@H](CCCCN)C(=O)N[C@@H](C(=O)N[C@H](CC(C)C)C(=O)N[C@H](CCCNC(=N)N)C(=O)N[C@H](Cc1ccc(O)cc1)C(=O)N[C@H](CC(C)C)C(N)=O)[C@H](C)CC [compound 1] (Butyryl-[dK][dK][dL][dF][dK][dK][dI][dL][dR][dY][dL]-NH2)", "val": "64 µg/mL"}
{"molecule": "CCCCCCCCCC(=O)N[C@H](CCCCN)C(=O)N[C@H](CCCCN)C(=O)N[C@H](CC(C)C)C(=O)N[C@H](Cc1ccccc1)C(=O)N[C@H](CCCCN)C(=O)N[C@H](CCCCN)C(=O)N[C@@H](C(=O)N[C@H](CC(C)C)C(=O)N1CCCC[C@H](C(N)=O)NC(=O)[C@@H](Cc2ccc(O)cc2)NC(=O)[C@@H](CCCNC(=N)N)NC(=O)C1)[C@H](C)CC", "val": "4 µg/mL"}
